All figures here come from patent US8466176B2.

Each record here notes measured chromatographic logP.
Assay: logP(HCOOH) reported with HPLC/MS
Details: reversed phase HPLC columns, pH 2.3, log p, method [a]: HPLC on reversed phase columns, pH 2.3 with 0.1% phosphoric acid and acetonitrile as eluent

Cn1nnnc1C(=NOCc1cccc(N(CCC2CCCCC2)C(=O)OC(C)(C)C)n1)c1ccccc1 : 6.56
Cn1nnnc1C(=NOCc1cccc(C=O)n1)c1ccccc1 : 2.54

Here is the next item to consider.
Can you look up the measured chromatographic logP of Cn1nnnc1C(=NOCc1cccc(C=NO)n1)c1ccccc1 for me? 2.16

----------
Assay: logP(HCOOH) reported with HPLC/MS
Conditions: method [b]: LC-MS at pH 2.7, 0.1% formic acid in water and acetonitrile, linear gradient 10% to 95% acetonitrile
The following compounds are shown together with reported log p values.

A selection of reference data follows.
Cn1nnnc1C(=NOCc1cccc(F)n1)c1ccccc1 : 2.77^[b]
CC(C)CCC#Cc1nc(CON=C(c2ccccc2)c2nnnn2C)c(Cl)s1 : 5.59^[b]
CC(C)CC(=O)NCc1cccc(CON=C(c2ccccc2)c2nnnn2C)n1 : 2.51^[b]

Requested read-out: log p. Entry: Cn1nnnc1C(=NOCc1nc(C#CCC2CCCCC2)ccc1F)c1ccccc1 5.28^[b]

Form field: reported log p of Cn1nnnc1C(=NOCc1nc(C#CCCC2CCCCC2)ccc1F)c1ccccc1 5.68^[b]

----------
Experiment: logP by HPLC on reversed phase columns, method [a], pH 2.3 with 0.1% phosphoric acid and acetonitrile
Assay type: physicochemical
Conditions: method [a]: pH 2.3, 0.1% phosphoric acid and acetonitrile as eluent; EEC directive 79/831 Annex V.A8, reversed phase HPLC
Below, each entry is listed alongside its reported log p.

CCc1ccc(-c2cccc(CON=C(c3ccccc3)c3nnnn3C)n2)cc1 [Example 38] : 4.7^[a]
CCCCC/C=C/c1cccc(CON=C(c2ccccc2)c2nnnn2C)n1 [Example 90] : 5^[a]
CCCCCCN(C)c1nc(CON=C(c2ccccc2)c2nnnn2C)cs1 [Example 50] : 4.56^[a]

# input compound: Cn1nnnc1C(=NOCc1cccc(/C=C/Cc2ccccc2)n1)c1ccccc1 [Example 94] ; wanted: its log p 4.31^[a]

----------
Item-by-item account of log p
Assay: logP(HCOOH) reported with HPLC/MS
Settings: method [a]: HPLC on reversed phase columns, pH 2.3 with 0.1% phosphoric acid and acetonitrile as eluent

// known answers, use as guide
Cn1nnnc1C(=NOCc1cccc(NCCCCC2CCCCC2)n1)c1ccccc1 : 3.55^[a]
Cn1nnnc1C(=NOCc1cccc(NCC2CCC2)n1)c1ccccc1 : 1.98^[a]

Please look up its log p: Cn1nnnc1C(=NOCc1cccc(NC/C=C/C#CC(C)(C)C)n1)c1ccccc1 3.25^[a]

Tell me the measured log p of Cn1nnnc1C(=NOCc1cccc(NCCCC2CCCCC2)n1)c1ccccc1 , please. 3.17^[a]

What value of measured log p is listed for CCOCCOCCNc1cccc(CON=C(c2ccccc2)c2nnnn2C)n1 ? 1.7^[a]

----------
Experiment: logP by HPLC on reversed phase columns, method [a], pH 2.3 with 0.1% phosphoric acid and acetonitrile
Type: physicochemical
Settings: method [a]: pH 2.3, 0.1% phosphoric acid and acetonitrile as eluent; EEC directive 79/831 Annex V.A8, reversed phase HPLC
reportedMetric: log p

Cn1nnnc1C(=NOCc1cccc(/C=C/c2cc(F)cc(F)c2)n1)c1ccccc1 : 4.49^[a]
CCCCOc1ccc(-c2cccc(CON=C(c3ccccc3)c3nnnn3C)n2)cc1 : 5.2^[a]

Could you now consider this next compound?
# get_value(readout='log p', item= CN(Cc1ccccc1)c1nc(CON=C(c2ccccc2)c2nnnn2C)cs1 ) 3.89^[a]

----------
Experiment: logP(HCOOH) reported with HPLC/MS
Conditions: method [b]: LC-MS, pH 2.7 with 0.1% formic acid in water and acetonitrile (0.1% formic acid), linear gradient 10% to 95% acetonitrile
reportedMetric: log p

Cn1nnnc1C(=NOCc1cccc(C#CCOCc2ccccc2)n1)c1ccccc1 : 3.96^[b]
CCSCC#Cc1cccc(CON=C(c2ccccc2)c2nnnn2C)n1 : 3.69^[b]
CCCOC(C)(C)C#Cc1cccc(CON=C(c2ccccc2)c2nnnn2C)n1 : 4.31^[b]

Which log p value belongs to Cn1nnnc1C(=NOCc1cccc(C#Cc2ccc(Cl)cc2)n1)c1ccccc1 ? 4.54^[b]

log p for C#Cc1nc(CON=C(c2cccc(F)c2)c2nnnn2C)cs1 ? 2.88^[b]

Request the reported log p associated with Cn1nnnc1C(=NOCc1csc(C#Cc2cccc(F)c2)n1)c1ccccc1 4.19^[b]

Give the measured log p of Cn1nnnc1C(=NOCc1cccc(C#Cc2cccs2)n1)c1ccccc1 . 3.94^[b]

May I ask what log p has been recorded for Cn1nnnc1C(=NOCc1csc(C#Cc2cccc(OC(F)(F)F)c2)n1)c1ccccc1 ? 4.81^[b]

What does the record list as log p for CCCCCC#Cc1cccc(CON=C(c2ccccc2)c2nnnn2C)n1 ? 4.67^[b]

Need log p, item CCc1ccc(C#Cc2cccc(CON=C(c3ccccc3)c3nnnn3C)n2)cc1 4.81^[b]

I have this compound here, Cn1nnnc1C(=NOCc1csc(C#CCCCCl)n1)c1ccccc1 , and I need its recorded log p. 3.8^[b]

What log p value was documented for this compound, CCCCCC#Cc1nc(CON=C(c2ccccc2)n2nnnc2C)cs1 ? 4.92^[b]

----------
Test: logP(HCOOH) reported with HPLC/MS
Details: method [b]: LC-MS at pH 2.7 with 0.1% formic acid in water and acetonitrile (0.1% formic acid), linear gradient 10% to 95% acetonitrile
Listing of recorded log p by entry.

CSc1cccc(C(=NOCc2cccc(NCC3CCCCC3)n2)c2nnnn2C)c1 : 3.02^[b]
CSc1cccc(C(=NOCc2csc(C#CC3CC3)n2)c2nnnn2C)c1 : 3.99^[b]
Cn1nnnc1C(=NOCc1cccc(NCCC2CCCCC2)n1)c1cccc(F)c1 : 3.27^[b]
CC(C)CSC(=O)Nc1cccc(CON=C(c2ccccc2)c2nnnn2C)n1 : 4.21^[b]
Cn1nnnc1C(=NOCc1cccc(NOCCc2ccccc2)n1)c1ccccc1 : 3.69^[b]

Given the entry Cn1nnnc1C(=NOCc1csc(C#Cc2ccccc2C(F)(F)F)n1)c1ccccc1 , report its measured log p. 4.51^[b]

GET /values?readout=log p&item= CSc1cccc(C(=NOCc2cccc(NCCC3CCCCC3)n2)c2nnnn2C)c1 3.17^[b]

Any idea what its log p is? The molecule is CCc1ccc(C#Cc2nc(CON=C(c3cccc(F)c3)c3nnnn3C)cs2)cc1 5^[b]

Which log p value belongs to Cn1nnnc1C(=NOCc1cccc(NC(=O)SC(C)(C)C)n1)c1ccccc1 ? 4.19^[b]

Give the measured log p of Cn1nnnc1C(=NOCc1cccc(N(OCc2ccccc2)C(=O)OC(C)(C)C)n1)c1ccccc1 . 4.65^[b]

# lookup: log p of Cn1nnnc1C(=NOCc1cccc(N(OCCc2ccccc2)C(=O)OC(C)(C)C)n1)c1ccccc1 4.89^[b]

What log p value was documented for this molecule, CSc1cccc(C(=NOCc2csc(C#CC3CCCCC3)n2)c2nnnn2C)c1 ? 5.29^[b]

Fill in: log p of CSc1cccc(C(=NOCc2csc(Br)n2)c2nnnn2C)c1 is ___ 3.55^[b]

Fill blank: measured log p of the molecule CCCCC#Cc1nc(CON=C(c2cccc(SC)c2)c2nnnn2C)cs1 is ____. 4.78^[b]

Entry Cn1nnnc1C(=NOCc1cccc(NOCC2CCCCC2)n1)c1ccccc1 has what log p? 4.44^[b]

State the recorded log p for this entry: Cn1nnnc1C(=NOCc1cccc(N(OCC2CCCCC2)C(=O)OC(C)(C)C)n1)c1ccccc1 6.25[b]

Request the reported log p associated with Cn1nnnc1C(=NOCc1cccc(NCC2CC2)n1)c1cccc(F)c1 1.98^[b]

// query log p value for entry CCCCON(C(=O)OC(C)(C)C)c1cccc(CON=C(c2ccccc2)c2nnnn2C)n1 4.75^[b]

Report log p for Cn1nnnc1C(=NOCc1cccc(NOCc2ccccc2)n1)c1ccccc1 please. 3.14^[b]

----------
Below, each entry is listed with its recorded log p.
Assay: logP(HCOOH) reported with HPLC/MS
Settings: method [a]: HPLC on reversed phase columns, pH 2.3 with 0.1% phosphoric acid and acetonitrile as eluent

COC=CC#Cc1nc(CON=C(c2ccccc2)c2nnnn2C)cs1 : 3.06^[a]

From here, focus on the item given below.
Form field: reported log p of Cn1nnnc1C(=NOCc1cccc(C=NN=CC2CC=CCC2)n1)c1ccccc1 (centres unmarked) 4.16^[a]

----------
Reported log p values for the following compounds.
Assay: logP by HPLC on reversed phase columns, method [a], pH 2.3 with 0.1% phosphoric acid and acetonitrile
Format: physicochemical
Conditions: method [a]: pH 2.3, 0.1% phosphoric acid and acetonitrile as eluent; EEC directive 79/831 Annex V.A8, reversed phase HPLC

Solved entries:
CCCC#Cc1cccc(CON=C(c2ccccc2)c2nnnn2C)n1 [Example 27] : 3.83^[a]
COc1cccc(-c2cccc(CON=C(c3ccccc3)c3nnnn3C)n2)c1 [Example 33] : 3.89^[a]

Look up log p for this compound: Cn1nnnc1C(=NOCc1cccc(-c2cc(Cl)cc(Cl)c2)n1)c1ccccc1 [Example 41] 5.23^[a]

Which log p reading was recorded for the compound Cn1nnnc1C(=NOCc1csc(/C=C/Cc2ccccc2)n1)c1ccccc1 [Example 88] ? 4.29^[a]

Form field: reported log p of Cn1nnnc1C(=NOCc1csc(C#CCCCc2ccccc2)n1)c1ccccc1 [Example 62] 4.78^[a]

Field request: log p | item: Cn1nnnc1C(=NOCc1cccc(-c2cccc(C(F)(F)F)c2)n1)c1ccccc1 [Example 45] 4.56^[a]

# get_value(readout='log p', item= Cn1nnnc1C(=NOCc1cccc(-c2ccc(OCc3ccccc3)cc2)n1)c1ccccc1 [Example 36] ) 4.89^[a]

Param item = Cn1nnnc1C(=NOCc1csc(C#CC2CCCCC2)n1)c1ccccc1 [Example 68] ; retrieve measured log p. 4.89^[a]

# query: log p of entry Cn1nnnc1C(=NOCc1cccc(C#CC(C)(C)C)n1)c1ccccc1 [Example 22] 4.19^[a]

Would you mind telling me what log p value was observed for CCCCOc1cccc(-c2cccc(CON=C(c3ccccc3)c3nnnn3C)n2)c1 [Example 44] ? 5.2^[a]

Look up log p for this compound: COCCCN(C)c1nc(CON=C(c2ccccc2)c2nnnn2C)cs1 [Example 46] 2.59^[a]

Item under review: CCCCCN(C)c1nc(CON=C(c2ccccc2)c2nnnn2C)cs1 [Example 51] . Reported log p? 4.01^[a]
